B1: DLC1 (parent)
chain: HVTHWMGQPFNSDDRNTACHHGLV

# Variants of: B1
# assayNotes: protein stability index of a GFP-peptide fusion (GPS, HEK-293T) (PSI 1-6); higher = more stable;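 further: lentivirally expressed fusions sorted by FACS into six bins by GFP to DsRed ratio, PSI derived from sequencing read proportions per bin multiplied by bin number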
# settings: c terminus: a fixed tail appended
parameterMeasured: protein stability index

• G22A = 2.49
• V2M = 2.71
• L23A = 2.51
• S12V = 1.8
• A18P = 1.94
• H21P = 1.95
• H21M = 2.21
• N16E = 2.35
• D14T = 1.99
• H1N = 2.76
• W5Q = 3.47
• R15L = 2.29
• V24D = 2.66
• T3N = 1.99
• L23W = 1.86
• N16V = 1.22
• P9I = 1.75
• T17V = 2.1
• N11Q = 2.23
• V24G = 1.92
• H21D = 2.58
• Q8D = 2.03
• L23M = 2.13
• F10Q = 2.5
• D13G = 2
• H1W = 1.78
